Property: EC50 group, cGMP in GTM-3 cells; scope: individual binders
Biological target: T1, natriuretic peptide receptor-B (human)
T1 chain: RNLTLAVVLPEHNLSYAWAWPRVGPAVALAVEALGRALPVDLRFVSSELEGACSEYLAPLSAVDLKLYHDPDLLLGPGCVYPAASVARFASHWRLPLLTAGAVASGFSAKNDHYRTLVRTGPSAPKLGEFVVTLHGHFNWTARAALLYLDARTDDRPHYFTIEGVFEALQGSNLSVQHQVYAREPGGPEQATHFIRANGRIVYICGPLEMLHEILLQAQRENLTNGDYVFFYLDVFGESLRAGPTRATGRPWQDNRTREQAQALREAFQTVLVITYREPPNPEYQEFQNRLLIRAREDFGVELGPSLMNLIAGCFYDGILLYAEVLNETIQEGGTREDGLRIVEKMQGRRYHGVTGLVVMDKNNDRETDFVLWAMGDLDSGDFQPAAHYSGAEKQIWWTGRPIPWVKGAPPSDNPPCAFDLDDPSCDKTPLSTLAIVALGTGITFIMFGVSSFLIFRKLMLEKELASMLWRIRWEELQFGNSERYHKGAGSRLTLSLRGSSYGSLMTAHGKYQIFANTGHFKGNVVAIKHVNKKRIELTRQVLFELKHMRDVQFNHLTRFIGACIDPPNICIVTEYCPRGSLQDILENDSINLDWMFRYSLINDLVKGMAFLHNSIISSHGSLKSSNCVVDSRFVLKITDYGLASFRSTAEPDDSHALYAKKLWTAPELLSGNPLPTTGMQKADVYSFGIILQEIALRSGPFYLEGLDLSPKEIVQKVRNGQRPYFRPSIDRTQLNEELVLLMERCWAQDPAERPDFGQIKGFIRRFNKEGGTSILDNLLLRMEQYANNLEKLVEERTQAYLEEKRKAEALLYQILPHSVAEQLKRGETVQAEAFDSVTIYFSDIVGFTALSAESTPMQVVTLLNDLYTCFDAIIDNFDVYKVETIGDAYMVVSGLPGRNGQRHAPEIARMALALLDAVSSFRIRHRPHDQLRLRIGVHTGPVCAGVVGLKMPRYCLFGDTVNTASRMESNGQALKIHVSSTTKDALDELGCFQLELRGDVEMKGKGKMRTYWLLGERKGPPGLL
Assay: cell-based or functional assay
Numbered stars: 1 amine (or outer) side, 2 acyl side, 3 side chain; on linkers, the order of the positions; unused ones are H or OH. Square brackets hold non-standard residues; d marks the D form. Ends that are not written are not given here. * marks the point of attachment. Sni = (S)-nipecotic acid, O=C([C@H]1CCCN([*:1])C1)[*:2]; Hyp = O=C(O)[C@@H]1C[C@@H](O)CN1; NMeL = CN[C@@H](CC(C)C)C(=O)O; Octanoyl = CCCCCCCC(=O)*; leu = not defined here; Occ = octanoic acid

Octanoyl-[Sni]FKL[Hyp][NMeL]DRI-NH2 (not fully specified (some residues); printed as Occ-Sni-Phe-lys-Leu-Hyp-Nml-Asp-Arg-Ile-NH2) [JAL-1254]
≤ 1000 nM

// Input: [Occ][Sni]F[leu]L[Hyp]IDRI-NH2 (reading uncertain; also: printed as Occ-Sni-Phe-leu-Leu-Hyp-Ile-Asp-Arg-Ile-NH2) [JAL-1625] . Output its EC50 group, cGMP in GTM-3 cells only.
≤ 1000 nM

Report EC50 group, cGMP in GTM-3 cells, nothing else, for this binder: XXFGLKLDRI (HELM PEPTIDE1{[CCCCCC(=O)[*:2]].[O=C([C@H]1CC[C@H](CN[*:1])CC1)[*:2]].F.G.L.K.L.D.R.I.[am]}$$$$V2.0; SMILES CCCCCC(=O)NC[C@H]1CC[C@H](C(=O)N[C@@H](Cc2ccccc2)C(=O)NCC(=O)N[C@@H](CC(C)C)C(=O)N[C@@H](CCCCN)C(=O)N[C@@H](CC(C)C)C(=O)N[C@@H](CC(=O)O)C(=O)N[C@@H](CCCNC(=N)N)C(=O)N[C@H](C(N)=O)[C@@H](C)CC)CC1) [JAL-0653]
≤ 15000 nM
